Tested on: tall waterhemp
assay info: Test G preemergence test
Assay type: in vivo, Amaranthus tuberculatos
run parameters: 62 g ai/ha, scale 0 to 100
Assignment: determine reported Plant response rating, Waterhemp for the given molecules.
Give bare numbers.

Cn1nc(C(F)(F)F)c(C(Cl)S(=O)(=O)c2cccc[n+]2[O-])c1Cl (stereo not shown); 40
Cc1cc[n+]([O-])c(S(=O)(=O)C(Cl)c2c(C(F)(F)F)nn(C)c2Cl)c1 (racemic); 20

Please go through the list and note Plant response rating, Waterhemp for each molecule.
1. Cc1cc[n+]([O-])c(S(=O)(=O)C(C)c2c(C(F)(F)F)nn(C)c2Cl)c1 (racemic)
2. Cc1cc[n+]([O-])c([S+]([O-])Cc2c(C(F)(F)F)nn(C)c2OC(F)F)c1 (stereo not shown)

Reply:
0
100
